Listed next: entries and their corresponding inhibition.
- TARGET UNDER TEST: Nuclear receptor subfamily 0 group B member 1 (Homo sapiens)
- ASSAY TEXT: DAX1 (NR0B1) inhibitors, primary screen, cell-based, HEK293, Gal4-DAX1, luciferase luminescence (AID 504766);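 note: 0% = DAX1-transfected cells with DMSO and 100% = empty-vector control cells with DMSO; inhibition shows as a rise in luminescence from relieved DAX1 repression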
- CONDITION CONTEXT: HEK293 Gal4-DAX1 luciferase reporter, at 6.75 µM, hits give high values
In all, about 340,000 compounds went through this assay and about 3,400 (1%) were called active. Only a selection was taken, and actives are over-represented in it overall.
Write the number in % without appending the unit.

Worked examples, 5 compounds total:
COMPOUND	UNIT DESCRIPTOR	inhibition
c1cnn(-c2cc(N3CCOCC3)ncn2)c1	%	0.28
S=C(NN=Cc1ccccn1)Nc1ccccn1	%	-4.47
CC1CN(C(=O)c2cccc(NS(=O)(=O)c3ccc(Br)cc3)c2)CC(C)O1 (configuration not stated)	%	0.52
Cc1ccc([C@H]2N[C@]3(CCCN(Cc4ccccc4)C3=O)[C@H]3C(=O)N(Cc4ccccc4)C(=O)[C@@H]23)cc1	%	0.82
O=C1[C@H]2[C@@H](c3ccc(C(F)(F)F)cc3)N[C@]3(CCCN(Cc4ccc(Br)cc4)C3=O)[C@H]2C(=O)N1Cc1ccccc1	%	-0.81

Would you mind telling me what inhibition value was observed for COc1ccc(-c2noc(-c3cccc(OC)c3OC)n2)cc1OC ?
4.33

Try the compound CCN1CCCC1CNC(=O)c1ccc2c(c1)NC(=O)/C(=C\c1ccccc1F)S2 (configuration not stated)
1.21

Try the compound O=NN(CCCl)C(=O)NCCc1cccc[n+]1[O-]
0.77

Try the compound Cn1c(CNc2nc(-c3ccccc3)cs2)nnc1SCC(=O)c1ccccc1
-1.22

Try the compound O=[N+]([O-])c1ccc2c(c1)C(O)n1nc(-c3ccccc3)nc1S2 (configuration not stated)
6.7

---

- TARGET UNDER TEST: Nuclear receptor subfamily 0 group B member 1 (Homo sapiens)
- ASSAY TEXT: DAX1 (NR0B1) inhibitors, primary screen, cell-based, HEK293, Gal4-DAX1, luciferase luminescence (AID 504766);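 note: 0% = DAX1-transfected cells with DMSO and 100% = empty-vector control cells with DMSO; inhibition shows as a rise in luminescence from relieved DAX1 repression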
- CONDITION CONTEXT: HEK293 Gal4-DAX1 luciferase reporter, at 6.75 µM
About 3,400 (1%) of roughly 340,000 compounds were called active.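 How the source made its calls: active means inhibition above the mean over all tested compounds plus 3 SD (cut at about 4.2% in these data); inactive means the rest.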 Only a selection was taken, and actives are over-represented in it overall.
API: response.call in TRUE = active, FALSE = inactive

MOLECULE	TARGET UNDER TEST	DISCRETE LABEL
Cc1ccc(NC(=O)Cn2sc3ccccc3c2=O)cc1	Nuclear receptor subfamily 0 group B member 1 (Homo sapiens)	FALSE
c1ccc(-c2ccc3c(c2)NC(C2Nc4cc(-c5ccccc5)ccc4O2)O3)cc1 (stereo unspecified)	Nuclear receptor subfamily 0 group B member 1 (Homo sapiens)	FALSE
COc1ccc(N)cc1NC(=O)CN1CCOCC1	Nuclear receptor subfamily 0 group B member 1 (Homo sapiens)	FALSE
c1ccc(-c2c[nH]c(-c3ccccc3)c2)cc1	Nuclear receptor subfamily 0 group B member 1 (Homo sapiens)	TRUE
Oc1ccc(-c2cccc(-c3ccc(O)cc3)c2)cc1	Nuclear receptor subfamily 0 group B member 1 (Homo sapiens)	FALSE

Outcome? CC12C(=O)N(n3cnnc3)C(=O)C1C1C=CC2C1 (stereo unspecified)
TRUE

---

- TARGET UNDER TEST: Nuclear receptor subfamily 0 group B member 1 (Homo sapiens)
- ASSAY TEXT: DAX1 (NR0B1) inhibitors, primary screen, cell-based, HEK293, Gal4-DAX1, luciferase luminescence (AID 504766);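 note: 0% = DAX1-transfected cells with DMSO and 100% = empty-vector control cells with DMSO; inhibition shows as a rise in luminescence from relieved DAX1 repression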
- CONDITION CONTEXT: HEK293 Gal4-DAX1 luciferase reporter, at 6.75 µM
The campaign covered roughly 340,000 compounds. About 3,400 (1%) were called active.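 How the source made its calls: active means inhibition above the mean over all tested compounds plus 3 SD (cut at about 4.2% in these data); inactive means the rest.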 For the sample, actives were picked, then their nearest neighbours and some compounds at random.
API: response.call in 1 for active, 0 for inactive

SMILES ENTRY	DISCRETE LABEL
C[C@@H]1CN([C@@H](C)CO)C(=O)c2cc(NS(C)(=O)=O)ccc2O[C@@H](C)CCCCO[C@H]1CN(C)C(=O)Nc1ccc2c(c1)OCO2	0

Outcome? O=S(=O)(Nc1ccc(-n2cnnn2)cc1)c1ccc(Cl)cc1
0

Try the compound CN(C)/C=C(/C(=O)c1ccc(Cl)cc1)S(=O)(=O)c1ccccc1
0

Try the compound CN(C)/C=C(/C(=O)c1ccc(F)cc1)S(=O)(=O)c1ccc(F)cc1
1

Try the compound CN(C)/C=C(/C(=O)c1ccccc1)S(=O)(=O)c1ccc(Cl)cc1
0

Sourced from PubChem BioAssay AID504766
